Test system: SW-620 colon
experiment: NCI-60 one-dose screen, 48 h
test-parameters: 10 µM unless noted
The panel holds about 83,000 compounds, 20% with a hit somewhere; the sample as a whole holds those more often. Active and inactive are the calls of the source. How the source made its calls: active means growth percent below 10; inactive means the rest.
Output constraint: value belongs to 1 (yes) for active, 0 (no) for inactive

compound	assigned-label
CC[n+]1c(-c2ccccc2)c2cc(N)ccc2c2ccc(N)cc21	0 (no)
CCCCCCCCCCCC1CCCC(C)N1 (stereo unspecified)	0 (no)
Cc1c(N)nc([C@H](CC(N)=O)NC[C@H](N)C(N)=O)nc1C(=O)N[C@H](C(=O)N[C@H](C)[C@@H](O)[C@H](C)C(=O)N[C@H](C(=O)NCCc1nc(-c2nc(C(=O)NCCC[S+](C)C)cs2)cs1)[C@@H](C)O)C(OC1OC(CO)C(O)C(O)C1OC1OC(CO)C(O)C(OC(N)=O)C1O)c1cnc[nH]1 (stereo partly specified)	0 (no)
CC1=C(CO)C2=C(C)C3(CC3)[C@@](C)(O)C(=O)C2=C1	0 (no)
COC1=C(C)C(=O)C2=C(C1=O)C(CO)N1C(C#N)C3CC4C(C1C2N1CCOC41)N3C (stereo unspecified)	1 (yes)

Prompt line: Can you look up the reported call for Oc1cc[c]([Hg][Cl])cc1 for me?
Response line: 0 (no)

The measured values listed here are drawn from PubChem BioAssay (NCI).
